target_of_assay: T1, human GIP receptor (human, UniProt P48546 22-466)
T1 sequence (looked up): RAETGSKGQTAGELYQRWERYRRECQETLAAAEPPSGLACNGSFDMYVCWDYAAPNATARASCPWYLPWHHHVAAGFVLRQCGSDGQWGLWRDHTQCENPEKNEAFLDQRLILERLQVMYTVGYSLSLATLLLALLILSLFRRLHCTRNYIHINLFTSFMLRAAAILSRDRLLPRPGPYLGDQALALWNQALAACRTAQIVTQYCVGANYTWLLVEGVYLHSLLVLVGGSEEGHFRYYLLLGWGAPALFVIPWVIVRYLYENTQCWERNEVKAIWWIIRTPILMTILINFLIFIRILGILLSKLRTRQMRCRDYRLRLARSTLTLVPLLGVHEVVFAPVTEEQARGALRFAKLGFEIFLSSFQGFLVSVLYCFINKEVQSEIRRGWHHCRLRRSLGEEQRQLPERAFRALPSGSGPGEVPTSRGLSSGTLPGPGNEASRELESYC
assay_details: cell-based or functional assay
Bridge positions count the residues as written; N and C are the ends. Square brackets hold non-standard residues; d marks the D form. Ends that are not written are not given here. C20L5A = not defined here; L5A = not defined here; Aib = CC(C)(N)C(=O)O
Attribute: EC50 [nM] of receptor-mediated cAMP synthesis
Hey, just the number and the unit after it is fine.

Example entries begin here.
# binder, result
measured = [
    ("Y[Aib]EGTFTSDYSIYLDKCAA[Aib]EFVCWLLAGGPSSGAPPPS-NH2 (linker 17-24 via L5A; not fully specified; reading uncertain) [C(17-24)-L5A]", "0.05 nM"),
    ("Y[Aib]EGTFTSDYSIYLDKCAQ[Aib]AFVCWLIAQGPSSGAPPPS-NH2 (linker 17-24 via C20L5A; not fully specified; reading uncertain) [19Q, 21A, 27I, 29Q, C(17-24) - C20L5A]", "0.02 nM"),
    ("Y[Aib]EGTFTSDYSIYKDKQAA[Aib]KFVNWLLAGGPSSGAPPPS-NH2 (bridge 14-21; not fully specified (bridges); also: K4 staple carries PEG-fatty acid) [mCMD307 (2050-K4)]", "0.01 nM"),
    ("Y[Aib]EGTFTSDYSIYLDKCAA[Aib]EFVCWLLAGGPSSGAPPPS-NH2 (linker 17-24 via C20L5A; not fully specified; reading uncertain) [C(17-24)-C20L5A]", "0.05 nM"),
]

Supply EC50 [nM] of receptor-mediated cAMP synthesis value. Item: Y[Aib]EGTFTSDYSIYCDKQAA[Aib]CFVNWLLAGGPSSGAPPPS-NH2 (linker 14-21 via L5A; not fully specified; reading uncertain) [mCMC759 (C(14-21)-L5A)]
0.03 nM
